# SYSTEM_UNDER_TEST: T1, beta-catenin (Homo sapiens, UniProt P35222)
# T1 chain: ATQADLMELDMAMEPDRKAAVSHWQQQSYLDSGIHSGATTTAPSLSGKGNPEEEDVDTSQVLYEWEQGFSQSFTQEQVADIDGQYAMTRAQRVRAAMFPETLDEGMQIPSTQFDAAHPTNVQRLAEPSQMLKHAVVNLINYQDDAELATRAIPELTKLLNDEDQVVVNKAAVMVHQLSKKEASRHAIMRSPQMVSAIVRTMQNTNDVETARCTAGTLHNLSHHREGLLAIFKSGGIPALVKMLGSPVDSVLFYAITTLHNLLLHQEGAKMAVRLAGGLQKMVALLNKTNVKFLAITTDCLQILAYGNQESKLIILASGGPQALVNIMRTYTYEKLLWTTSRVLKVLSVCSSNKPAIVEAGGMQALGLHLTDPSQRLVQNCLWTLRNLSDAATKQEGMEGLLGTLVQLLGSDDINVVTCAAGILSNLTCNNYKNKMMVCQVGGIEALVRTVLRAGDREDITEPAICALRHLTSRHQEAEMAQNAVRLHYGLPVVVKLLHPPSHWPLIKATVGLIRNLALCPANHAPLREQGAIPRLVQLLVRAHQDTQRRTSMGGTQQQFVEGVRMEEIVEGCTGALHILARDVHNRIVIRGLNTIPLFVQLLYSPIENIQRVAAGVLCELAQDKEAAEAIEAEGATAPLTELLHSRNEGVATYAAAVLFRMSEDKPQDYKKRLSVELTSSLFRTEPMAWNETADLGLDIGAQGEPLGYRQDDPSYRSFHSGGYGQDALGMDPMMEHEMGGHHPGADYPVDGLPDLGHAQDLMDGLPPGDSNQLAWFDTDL
# ASSAY_PROTOCOL: SPR
RECORDED_ENDPOINT: Kd

Note down Kd recorded for GGGDDLGANDELISFKDEGEQEEKSSENSSAERDLADVKSSLVNE [TCF4 peptide TCF(7-51) 7-51]
~108 nM
